test system: rat heart tissue; assay: GENECALLING differential gene expression analysis after dosing of serotonin modulating agents; format: in vivo, Sprague Dawley rats; conditions: CARDIOTOX 14, GenBank AB020759
Measured attribute: Effects on Transcription Level: Kruppel-like transcription factor

Solved entries (count: 5):
{"Compound": "CCNC(C)Cc1cccc(C(F)(F)F)c1 (stereo not drawn)", "Reported measurement": "+1.7 fold"}
{"Compound": "CNCCC(Oc1ccc(C(F)(F)F)cc1)c1ccccc1 (stereo not drawn)", "Reported measurement": "+1.3 fold"}
{"Compound": "CNS(=O)(=O)Cc1ccc2[nH]cc(CCN(C)C)c2c1", "Reported measurement": "+1.3 fold"}
{"Compound": "CC(C)CC(N(C)C)C1(c2ccc(Cl)cc2)CCC1 (stereo not drawn)", "Reported measurement": "+1.1 fold"}
{"Compound": "CN1C[C@H](C(=O)N[C@]2(C)O[C@@]3(O)[C@@H]4CCCN4C(=O)[C@H](Cc4ccccc4)N3C2=O)C[C@@H]2c3cccc4[nH]cc(c34)C[C@H]21 [dihydroergotamine]", "Reported measurement": "+1.2 fold"}

Note: attention shifts to another entry.
# input I'm curious: which Effects on Transcription Level: Kruppel-like transcription factor was measured for CCN[C@@H](C)Cc1cccc(C(F)(F)F)c1 tested on rat heart tissue?
# output +1.3 fold

----------
test system: rat heart tissue; assay: GENECALLING differential gene expression analysis after dosing of serotonin modulating agents; format: in vivo, Sprague Dawley rats; details: CARDIOTOX 92, GenBank J03179
Measured attribute: Effects on Transcription Level: D-Binding Protein (DBP) (fold)
Expressed in fold, but write only the number.

{"Compound": "CCN[C@@H](C)Cc1cccc(C(F)(F)F)c1", "Units text": "fold", "Reported measurement": "−1.9"}
{"Compound": "CNCCC(Oc1ccc(C(F)(F)F)cc1)c1ccccc1 (stereo not drawn)", "Units text": "fold", "Reported measurement": "−1.5"}
{"Compound": "CCNC(C)Cc1cccc(C(F)(F)F)c1 (stereo not drawn)", "Units text": "fold", "Reported measurement": "−1.9"}
{"Compound": "CNS(=O)(=O)Cc1ccc2[nH]cc(CCN(C)C)c2c1", "Units text": "fold", "Reported measurement": "−1.4"}
{"Compound": "CN1C[C@H](C(=O)N[C@]2(C)O[C@@]3(O)[C@@H]4CCCN4C(=O)[C@H](Cc4ccccc4)N3C2=O)C[C@@H]2c3cccc4[nH]cc(c34)C[C@H]21 [dihydroergotamine]", "Units text": "fold", "Reported measurement": "−1.5"}

Note: attention shifts to another entry.
# input Tell me the measured Effects on Transcription Level: D-Binding Protein (DBP) of CC(C)CC(N(C)C)C1(c2ccc(Cl)cc2)CCC1 (stereo not drawn) , please.
# output −1.7

----------
tested on: rat heart tissue; assay: GENECALLING differential gene expression analysis after dosing of serotonin modulating agents; assay type: in vivo, Sprague Dawley rats; conditions: CARDIOTOX 98, GenBank X06701
This section presents molecules with their documented Effects on Transcription Level: Beta-globin values.

Solved entries (count: 5):
{"Molecule": "CCNC(C)Cc1cccc(C(F)(F)F)c1 (stereo not drawn)", "Reported measurement": "+3.6 fold"}
{"Molecule": "CC(C)CC(N(C)C)C1(c2ccc(Cl)cc2)CCC1 (stereo not drawn)", "Reported measurement": "+5.0 fold"}
{"Molecule": "CCN[C@@H](C)Cc1cccc(C(F)(F)F)c1", "Reported measurement": "+3.1 fold"}
{"Molecule": "CN1C[C@H](C(=O)N[C@]2(C)O[C@@]3(O)[C@@H]4CCCN4C(=O)[C@H](Cc4ccccc4)N3C2=O)C[C@@H]2c3cccc4[nH]cc(c34)C[C@H]21 [dihydroergotamine]", "Reported measurement": "+3.3 fold"}
{"Molecule": "CNCCC(Oc1ccc(C(F)(F)F)cc1)c1ccccc1 (stereo not drawn)", "Reported measurement": "+4.0 fold"}

Note: attention shifts to another entry.
# input I'm curious: which Effects on Transcription Level: Beta-globin was measured for CNS(=O)(=O)Cc1ccc2[nH]cc(CCN(C)C)c2c1 tested on rat heart tissue?
# output +3.11 fold

The measured values listed here are drawn from patent US20040005537A1.
